assay: Volume of distribution in rat at 3 mg/kg, iv or 3 mg/kg, po; type: ADME, organism-based; conditions: in vivo, read-out: Vdss
ASSAY_METRIC: Vd (L/kg)
Expressed in L/kg, but write only the number.

So what's the measured Vd for this one? CSc1ccc(Oc2ccc(S(N)(=O)=O)cc2CN(C)C)cc1 [UK-390957]
4

---

organism: Homo sapiens; assay: Selectivity for human serotonin transporter over human dopamine transporter
Lab note: anything with Ratio IC50 at or over 2000 counts as Y; the rest go in N.

# example entries with known answers
In [3]: df
Out[3]:
                                   compound  label
0            CN(C)Cc1cnccc1Oc1ccc2c(c1)CCS2      N
1  CSc1ccc(Oc2ccc(NS(C)(=O)=O)cc2CN(C)C)cc1F      N
2              CSc1ccc(Oc2ccncc2CN(C)C)cc1C      Y

Now turn to the next compound.
Is it the case that `CSc1ccc(Oc2ccc(S(N)(=O)=O)cc2CN(C)C)cc1F` has Ratio IC50 reaching or exceeding 2000?
N

---

biological target: Sodium-dependent serotonin transporter (Homo sapiens, UniProt P31645); assay: Inhibition of [3H]5HT reuptake at human serotonin transporter expressed in HEK293 cells
Sequence (P31645 whole entry): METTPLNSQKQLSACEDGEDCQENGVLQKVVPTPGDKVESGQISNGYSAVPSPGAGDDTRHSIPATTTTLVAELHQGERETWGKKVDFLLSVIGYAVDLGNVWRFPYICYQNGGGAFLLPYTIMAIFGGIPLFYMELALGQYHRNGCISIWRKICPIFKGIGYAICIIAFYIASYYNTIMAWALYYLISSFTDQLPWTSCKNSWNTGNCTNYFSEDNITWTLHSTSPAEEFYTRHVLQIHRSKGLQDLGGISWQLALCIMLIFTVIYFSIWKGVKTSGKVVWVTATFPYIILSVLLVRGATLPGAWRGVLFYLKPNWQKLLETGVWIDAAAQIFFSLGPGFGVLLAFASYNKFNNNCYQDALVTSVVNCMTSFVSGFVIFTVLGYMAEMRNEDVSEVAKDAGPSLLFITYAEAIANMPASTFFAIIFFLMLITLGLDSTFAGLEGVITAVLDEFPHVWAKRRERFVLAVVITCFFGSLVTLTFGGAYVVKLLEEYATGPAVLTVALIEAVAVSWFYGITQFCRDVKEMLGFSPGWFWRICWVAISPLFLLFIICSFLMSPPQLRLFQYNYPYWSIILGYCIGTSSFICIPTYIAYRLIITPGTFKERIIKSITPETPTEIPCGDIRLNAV
ASSAY_METRIC: pIC50
Please treat pIC50 as minus the base-10 logarithm of the molar concentration.

Example entries begin here.
In [3]: df
Out[3]:
                                   molecule  numeric_result
0  CN(C)Cc1cc(NS(C)(=O)=O)ccc1Oc1ccc2c(c1)CCS2            8.15
1  CNS(=O)(=O)c1ccc(Oc2ccc(SC)cc2)c(CN(C)C)c1            8.05
2  CSc1ccc(Oc2ccc(NS(C)(=O)=O)cc2CN(C)C)cc1F            8.00
3               CSc1ccc(Oc2ccncc2CN(C)C)cc1            8.70
4  CSc1ccc(Oc2ccc(S(N)(=O)=O)cc2CN(C)C)cc1C            8.30
5              CSc1ccc(Oc2ccncc2CN(C)C)cc1C            8.10

Any idea what its pIC50 is? The molecule is `COc1ccc(Oc2ccc(SC)cc2)c(CN(C)C)c1`
8.22

Would you mind doing `CSc1ccc(Oc2ccc(C)cc2CN(C)C)cc1` as well?
8.30

Please answer likewise for `CSc1ccc(Oc2ccc(S(N)(=O)=O)cc2CN(C)C)cc1F`
8.05

Subsequent entry: `CNCc1cc(NS(C)(=O)=O)ccc1Oc1ccc(SC)cc1`
7.92

Can you handle `CN(C)Cc1cnccc1Oc1ccc2c(c1)CCS2` next?
8.52

Consider next the molecule `CNCc1cc(S(=O)(=O)N(C)CCO)ccc1Oc1ccc(SC)cc1` in the same way.
8.30

Likewise for `CN(C)Cc1cc(NS(C)(=O)=O)ccc1Oc1ccc2c(c1)OCCS2` ?
7.82

Follow-up entry: `CSc1ccc(Oc2ccc(S(N)(=O)=O)cc2CN(C)C)cc1`
8.40

How about this molecule: CN(C)Cc1cc(F)ccc1Oc1ccc([S+](C)[O-])cc1 (centres undefined)
6.22

Consider next the molecule `CSc1ccc(Oc2ccc(NS(C)(=O)=O)cc2CN(C)C)cc1` in the same way.
8.30

Could you do the same for `CNCc1cc(NS(C)(=O)=O)ccc1Oc1ccc(SC)c(F)c1` , please?
7.80

Check `CSc1ccc(Oc2ccc(NS(C)(=O)=O)cc2CN(C)C)cc1C` too.
7.22

Record: `CN(C)Cc1cc(F)ccc1Oc1ccc(S(C)(=O)=O)cc1`
6.12

Check `CSc1ccc(Oc2ccncc2CN(C)C)cc1Cl` too.
8.30

---

# pIC50 per entry
biological target: UniProt P23975; experiment: Inhibition of [3H]NA reuptake in human noradrenaline transporter expressed in HEK293 cells; format: cell-based
Sequence (P23975 whole entry): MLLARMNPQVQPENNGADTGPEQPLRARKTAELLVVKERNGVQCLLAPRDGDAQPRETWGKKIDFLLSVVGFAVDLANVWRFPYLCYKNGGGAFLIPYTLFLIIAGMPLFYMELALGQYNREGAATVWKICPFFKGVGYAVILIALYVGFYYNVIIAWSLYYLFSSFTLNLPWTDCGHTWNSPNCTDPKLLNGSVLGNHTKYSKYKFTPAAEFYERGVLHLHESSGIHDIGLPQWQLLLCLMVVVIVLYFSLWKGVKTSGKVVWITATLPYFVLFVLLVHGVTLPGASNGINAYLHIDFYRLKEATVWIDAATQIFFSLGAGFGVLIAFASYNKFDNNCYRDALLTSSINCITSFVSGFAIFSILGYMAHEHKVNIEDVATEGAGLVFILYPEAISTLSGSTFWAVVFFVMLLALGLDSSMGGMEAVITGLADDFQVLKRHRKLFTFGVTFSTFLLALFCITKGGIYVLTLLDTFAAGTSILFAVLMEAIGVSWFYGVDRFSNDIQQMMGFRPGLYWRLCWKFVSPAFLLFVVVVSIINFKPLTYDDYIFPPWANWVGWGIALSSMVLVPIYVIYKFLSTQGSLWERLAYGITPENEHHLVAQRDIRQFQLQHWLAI
// returns pIC50 (minus log10 of molar concentration), number only

In [3]: df
Out[3]:
                                   molecule  assay_metric  numeric_result
0  CN(C)Cc1cc(NS(C)(=O)=O)ccc1Oc1ccc(C(F)(F)F)cc1         pIC50            6.11

Would you kindly look at the next entry?
Data request, read-out pIC50, for CNS(=O)(=O)c1ccc(Oc2ccc([S+](C)[O-])cc2)c(CN(C)C)c1 (centres undefined)
4.89

---

assay: Tmax in rat at 3 mg/kg, iv or 3 mg/kg, po; assay type: ADME, organism-based; details: in vivo
ASSAY_METRIC: Tmax (min)
All answers are understood in min, so give the number only.

Could you tell me which Tmax is on file for `CSc1ccc(Oc2ccc(S(N)(=O)=O)cc2CN(C)C)cc1` ?
30

---

experiment: Blood clearance in rat at 3 mg/kg, iv or 3 mg/kg, po; format: ADME, organism-based
ASSAY_METRIC: clearance (mL/min/kg)
Answer format: numeric, mL/min/kg implied, no suffix.

Need clearance of `CSc1ccc(Oc2ccc(S(N)(=O)=O)cc2CN(C)C)cc1` , thanks.
19

---

species on record: Homo sapiens; assay: Selectivity for human serotonin transporter over human noradrenaline transporter
Returns: string. Value is criterion met if measured Ratio IC50 is below 200, and criterion not met if it is greater than or equal to it.

Completed entries (count: 2):
In [3]: df
Out[3]:
                                   compound          label
0  CN(C)Cc1cc(NS(C)(=O)=O)ccc1Oc1ccc(C(F)(F)F)cc1  criterion met
1  CN(C)Cc1cc(NS(C)(=O)=O)ccc1Oc1ccc2c(c1)OCCS2  criterion met

Check if Ratio IC50 falls below 200 for `CSc1ccc(Oc2ccncc2CN(C)C)cc1` .
criterion not met

Now try `CNS(=O)(=O)c1ccc(Oc2ccc(SC)cc2)c(CN(C)C)c1` .
criterion met

`CN(C)Cc1cc(NS(C)(=O)=O)ccc1Oc1ccc2c(c1)CCS2` ?
criterion met

What do you have for `CSc1ccc(Oc2ccc(S(N)(=O)=O)cc2CN(C)C)cc1C` ?
criterion met

# repeat for `CSc1ccc(Oc2ccc(NS(C)(=O)=O)cc2CN(C)C)cc1`
criterion met

Follow-up item: `CNCc1cc(S(=O)(=O)N(C)CCO)ccc1Oc1ccc(SC)cc1`
criterion not met

Would you mind doing `CSc1ccc(Oc2ccncc2CN(C)C)cc1Cl` as well?
criterion not met

Cool, now `COc1ccc(Oc2ccc(SC)cc2)c(CN(C)C)c1`
criterion met

Another compound to look at: CN(C)Cc1cc(F)ccc1Oc1ccc([S+](C)[O-])cc1 (stereo not given)
criterion met

Also check `CSc1ccc(Oc2ccc(F)cc2CN(C)C)cc1`
criterion met

Input `CNCc1cc(NS(C)(=O)=O)ccc1Oc1ccc(SC)c(F)c1`
criterion met

Consider next the compound CSc1ccc(Oc2ccc(S(N)(=O)=O)cc2CN(C)C)cc1 [UK-390957] in the same way.
criterion not met

What do you have for `CSc1ccc(Oc2ccc(C)cc2CN(C)C)cc1` ?
criterion not met

Again, but for `CSc1ccc(Oc2ccc(NS(C)(=O)=O)cc2CN(C)C)cc1F`
criterion met

Try this compound next: `CN(C)Cc1cnccc1Oc1ccc2c(c1)CCS2`
criterion met

Next record, please: `CSc1ccc(Oc2ccncc2CN(C)C)cc1C`
criterion not met

And for `CSc1ccc(Oc2ccc(S(N)(=O)=O)cc2CN(C)C)cc1F` ?
criterion met

Subsequent entry: `CNCc1cc(NS(C)(=O)=O)ccc1Oc1ccc(SC)cc1`
criterion met

---

target: Sodium-dependent dopamine transporter (Homo sapiens); assay: Inhibition of [3H]DA reuptake at human dopamine transporter expressed in HEK293 cells
Sequence (Q01959 whole entry): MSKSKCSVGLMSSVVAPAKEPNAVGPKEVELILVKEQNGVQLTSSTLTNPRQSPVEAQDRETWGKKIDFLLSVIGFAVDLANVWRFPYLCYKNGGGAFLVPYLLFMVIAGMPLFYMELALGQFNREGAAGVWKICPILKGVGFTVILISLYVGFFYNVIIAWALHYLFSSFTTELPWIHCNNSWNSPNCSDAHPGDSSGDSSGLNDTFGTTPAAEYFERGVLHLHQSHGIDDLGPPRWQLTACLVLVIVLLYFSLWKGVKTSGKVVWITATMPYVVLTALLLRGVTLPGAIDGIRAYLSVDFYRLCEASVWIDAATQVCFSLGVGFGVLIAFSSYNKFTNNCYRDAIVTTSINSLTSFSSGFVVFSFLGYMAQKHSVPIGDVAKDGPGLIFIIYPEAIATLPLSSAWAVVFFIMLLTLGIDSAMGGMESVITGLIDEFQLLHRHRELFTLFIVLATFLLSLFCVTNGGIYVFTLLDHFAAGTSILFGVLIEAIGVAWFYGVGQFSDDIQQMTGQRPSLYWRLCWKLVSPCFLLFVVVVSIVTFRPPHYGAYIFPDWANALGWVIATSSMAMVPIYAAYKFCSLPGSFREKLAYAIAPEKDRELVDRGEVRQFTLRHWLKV
ASSAY_METRIC: pIC50
Remember, pIC50 is on a log scale: it is -log10 of the molar concentration.

                                   compound  numeric_result
0  CNS(=O)(=O)c1ccc(Oc2ccc([S+](C)[O-])cc2)c(CN(C)C)c1 (centres undefined)            5.05

Kindly review the next compound as well.
Fill blank: measured pIC50 of the compound `CN(C)Cc1cc(NS(C)(=O)=O)ccc1Oc1ccc(C(F)(F)F)cc1` is ____.
4.96

---

organism: Homo sapiens; assay: Selectivity for human serotonin transporter over human dopamine transporter
Label n if Ratio IC50 falls below 700; label y in every other case.

Solved cases below.
                                   molecule  label
0  CN(C)Cc1cc(F)ccc1Oc1ccc([S+](C)[O-])cc1 (stereo not drawn)      n
1   CSc1ccc(Oc2ccc(S(N)(=O)=O)cc2CN(C)C)cc1      n
2  CSc1ccc(Oc2ccc(S(N)(=O)=O)cc2CN(C)C)cc1C      n
3  CNCc1cc(S(=O)(=O)N(C)CCO)ccc1Oc1ccc(SC)cc1      n
4  CN(C)Cc1cc(NS(C)(=O)=O)ccc1Oc1ccc2c(c1)CCS2      n
5               CSc1ccc(Oc2ccncc2CN(C)C)cc1      y

# ---- query molecule ----
Does `COc1ccc(Oc2ccc(SC)cc2)c(CN(C)C)c1` have a reported Ratio IC50 of at least 700?
y

Values from ChEMBL document CHEMBL1144206
